Values from ChEMBL document CHEMBL2203281

System: Influenza A virus
Assay: Antiviral activity against Influenza A virus (A/PR/8/34(H1N1)) infected in MDCK cells assessed as virus-induced cytopathic effect after 3 days by microscopic analysis
Type: functional, organism-based, A/Puerto Rico/8/1934(H1N1)
Conditions: mdck
pEC50: −log10 of the molar value.

{"columns": ["compound_structure", "pEC50"],
 "data": [
  ["NC(=O)c1ncn([C@@H]2O[C@H](CO)[C@@H](O)[C@H]2O)n1", 5.05]
]}

---

In this section, each of the compounds is paired with its reported log10 EC50.
Tested on: Influenza A virus
Test: Antiviral activity against Influenza A virus (A/X-31(H3N2)) infected in MDCK cells assessed as virus-induced cytopathic effect after 3 days by microscopic analysis
Format: functional, organism-based
Details: 72 h
endpoint_name: log10 EC50 (log10 of the value in µM)

{"columns": ["compound", "system_under_test", "log10 EC50"],
 "data": [
  ["CCCC1CCC2(CC1)SC(C)C(=O)N2NC(=O)C12CC3CC(CC(C3)C1)C2 (stereo not given)", "Influenza A virus", 1.46],
  ["Cc1nc2sccn2c1C(=O)NN1C(=O)C(C)SC12CCC(C)CC2 (stereo not given)", "Influenza A virus", 0.83],
  ["CC(=O)N[C@H]1[C@H]([C@H](O)[C@H](O)CO)OC(C(=O)O)=C[C@@H]1NC(=N)N", "Influenza A virus", 1.08],
  ["CCC1CCC2(CC1)SC(C)C(=O)N2NC(=O)C12CC3CC(CC(C3)C1)C2 (stereo not given)", "Influenza A virus", 1.71],
  ["CC(N)C12CC3CC(CC(C3)C1)C2 (stereo not given)", "Influenza A virus", 1.65],
  ["CC1CCC2(CC1)SC(C)C(=O)N2NC(=O)C12CC3CC(CC(C3)C1)C2 (stereo not given)", "Influenza A virus", 0.20],
  ["NC12CC3CC(CC(C3)C1)C2", "Influenza A virus", 2.35]
]}

---

Experiment: Cytotoxicity against dog MDCK cells assessed as cell morphology alterations by microscopic analysis
Format: cell-based, Canis lupus familiaris

{"columns": ["compound", "MCC"],
 "data": [
  ["CC(C)(C)C1CCC2(CC1)SCC(=O)N2NC(=O)C12CC3CC(CC(C3)C1)C2 (stereo not given)", "> 20 µM"],
  ["CC1CCC2(CC1)SC(C)C(=O)N2NC(=O)C12CC3CC(CC(C3)C1)C2 (stereo not given)", "> 100 µM"],
  ["Cc1nc2sccn2c1C(=O)NN1C(=O)C(C)SC12CCC(C)CC2 (stereo not given)", "> 100 µM"],
  ["CC(=O)N[C@H]1[C@H]([C@H](O)[C@H](O)CO)OC(C(=O)O)=C[C@@H]1NC(=N)N", "> 100 µM"],
  ["NC(=O)c1ncn([C@@H]2O[C@H](CO)[C@@H](O)[C@H]2O)n1", "> 20 µM"],
  ["CC1SC2(CCC(c3ccccc3)CC2)N(NC(=O)C23CC4CC(CC(C4)C2)C3)C1=O (stereo not given)", "20 µM"],
  ["CCCC1CCC2(CC1)SCC(=O)N2NC(=O)C12CC3CC(CC(C3)C1)C2 (stereo not given)", "> 100 µM"],
  ["CC1SC2(CCCCC2)N(NC(=O)C23CC4CC(CC(C4)C2)C3)C1=O (stereo not given)", "> 100 µM"],
  ["CCC1CCC2(CC1)SCC(=O)N2NC(=O)C12CC3CC(CC(C3)C1)C2 (stereo not given)", "> 100 µM"],
  ["NC12CC3CC(CC(C3)C1)C2", "> 500 µM"]
]}

---

System: Influenza A virus
Assay: Antiviral activity against Influenza A virus (A/X-31(H3N2)) infected in MDCK cells assessed as virus-induced cytopathic effect after 3 days by MTS assay
Assay type: functional, organism-based
Conditions: Influenza A virus, MDCK, 72 h
pEC50: −log10 of the molar value.

{"columns": ["molecule", "reported_relation", "pEC50"],
 "data": [
  ["CC1CCC2(CC1)SC(C)C(=O)N2NC(=O)C12CC3CC(CC(C3)C1)C2 (stereo not given)", "=", 5.85],
  ["CCCC1CCC2(CC1)SC(C)C(=O)N2NC(=O)C12CC3CC(CC(C3)C1)C2 (stereo not given)", "=", 4.64],
  ["CC1SC2(CCC(C(C)(C)C)CC2)N(NC(=O)C23CC4CC(CC(C4)C2)C3)C1=O (stereo not given)", "<", 4.00],
  ["CC(N)C12CC3CC(CC(C3)C1)C2 (stereo not given)", "=", 4.40],
  ["CC1SC2(CCCCC2)N(NC(=O)C23CC4CC(CC(C4)C2)C3)C1=O (stereo not given)", "<", 4.00],
  ["CC1SC2(CCC(c3ccccc3)CC2)N(NC(=O)C23CC4CC(CC(C4)C2)C3)C1=O (stereo not given)", "<", 4.00],
  ["O=C1CSC2(CCC(c3ccccc3)CC2)N1NC(=O)C12CC3CC(CC(C3)C1)C2 (stereo not given)", "<", 4.00],
  ["CCC1CCC2(CC1)SCC(=O)N2NC(=O)C12CC3CC(CC(C3)C1)C2 (stereo not given)", "=", 4.68],
  ["CCC1CCC2(CC1)SC(C)C(=O)N2NC(=O)C12CC3CC(CC(C3)C1)C2 (stereo not given)", "=", 5.77],
  ["NC12CC3CC(CC(C3)C1)C2", "=", 3.68]
]}

---

Measured MCC by item
Experiment: Cytotoxicity against dog MDCK cells assessed as cell morphology alterations by microscopic analysis
Type: cell-based, Canis lupus familiaris

{"columns": ["compound", "MCC"],
 "data": [
  ["CC1CCC2(CC1)SCC(=O)N2NC(=O)C12CC3CC(CC(C3)C1)C2 (stereo not given)", "> 100 µM"],
  ["O=C1CSC2(CCC(c3ccccc3)CC2)N1NC(=O)C12CC3CC(CC(C3)C1)C2 (stereo not given)", "> 20 µM"],
  ["CCC1CCC2(CC1)SC(C)C(=O)N2NC(=O)C12CC3CC(CC(C3)C1)C2 (stereo not given)", "> 100 µM"],
  ["CC1SC2(CCC(C(C)(C)C)CC2)N(NC(=O)C23CC4CC(CC(C4)C2)C3)C1=O (stereo not given)", "> 100 µM"],
  ["CCCC1CCC2(CC1)SC(C)C(=O)N2NC(=O)C12CC3CC(CC(C3)C1)C2 (stereo not given)", "> 100 µM"]
]}

---

Tested on: Influenza A virus
Experiment: Antiviral activity against Influenza A virus (A/X-31(H3N2)) infected in MDCK cells assessed as virus-induced cytopathic effect after 3 days by MTS assay
Format: functional, organism-based
Conditions: Influenza A virus, MDCK, 72 h

{"columns": ["compound", "system_under_test", "reported_relation", "EC50, µM"],
 "data": [
  ["CC1CCC2(CC1)SCC(=O)N2NC(=O)C12CC3CC(CC(C3)C1)C2 (stereo not given)", "Influenza A virus", ">", 100],
  ["CCCC1CCC2(CC1)SCC(=O)N2NC(=O)C12CC3CC(CC(C3)C1)C2 (stereo not given)", "Influenza A virus", "=", 44],
  ["CC(C)(C)C1CCC2(CC1)SCC(=O)N2NC(=O)C12CC3CC(CC(C3)C1)C2 (stereo not given)", "Influenza A virus", "=", 34],
  ["Cc1nc2sccn2c1C(=O)NN1C(=O)C(C)SC12CCC(C)CC2 (stereo not given)", "Influenza A virus", "=", 9],
  ["CC(=O)N[C@H]1[C@H]([C@H](O)[C@H](O)CO)OC(C(=O)O)=C[C@@H]1NC(=N)N", "Influenza A virus", "=", 53]
]}

---

Tested on: Influenza A virus
Test: Antiviral activity against Influenza A virus (A/PR/8/34(H1N1)) infected in MDCK cells assessed as virus-induced cytopathic effect after 3 days by MTS assay
Type: functional, organism-based, A/Puerto Rico/8/1934(H1N1)
Conditions: Influenza A virus, A/Puerto Rico/8/1934(H1N1), MDCK, 72 h
pEC50: −log10 of the molar value.
Here, each record is paired with measured pEC50 data.

{"columns": ["compound", "pEC50"],
 "data": [
  ["CC(N)C12CC3CC(CC(C3)C1)C2 (stereo not given)", 5.60],
  ["CCCC1CCC2(CC1)SC(C)C(=O)N2NC(=O)C12CC3CC(CC(C3)C1)C2 (stereo not given)", "< 4.00"],
  ["CC1SC2(CCC(C(C)(C)C)CC2)N(NC(=O)C23CC4CC(CC(C4)C2)C3)C1=O (stereo not given)", "< 4.00"],
  ["CC1CCC2(CC1)SCC(=O)N2NC(=O)C12CC3CC(CC(C3)C1)C2 (stereo not given)", "< 4.00"],
  ["CC(C)(C)C1CCC2(CC1)SCC(=O)N2NC(=O)C12CC3CC(CC(C3)C1)C2 (stereo not given)", 4.28],
  ["CC1SC2(CCCCC2)N(NC(=O)C23CC4CC(CC(C4)C2)C3)C1=O (stereo not given)", "< 4.00"],
  ["Cc1nc2sccn2c1C(=O)NN1C(=O)C(C)SC12CCC(C)CC2 (stereo not given)", "< 4.00"],
  ["CCCC1CCC2(CC1)SCC(=O)N2NC(=O)C12CC3CC(CC(C3)C1)C2 (stereo not given)", "< 4.00"],
  ["CC1SC2(CCC(c3ccccc3)CC2)N(NC(=O)C23CC4CC(CC(C4)C2)C3)C1=O (stereo not given)", "< 4.00"],
  ["CC(=O)N[C@H]1[C@H]([C@H](O)[C@H](O)CO)OC(C(=O)O)=C[C@@H]1NC(=N)N", 6.32],
  ["NC12CC3CC(CC(C3)C1)C2", 4.12],
  ["CCC1CCC2(CC1)SCC(=O)N2NC(=O)C12CC3CC(CC(C3)C1)C2 (stereo not given)", "< 4.00"],
  ["CCC1CCC2(CC1)SC(C)C(=O)N2NC(=O)C12CC3CC(CC(C3)C1)C2 (stereo not given)", "< 4.00"],
  ["O=C1CSC2(CCC(c3ccccc3)CC2)N1NC(=O)C12CC3CC(CC(C3)C1)C2 (stereo not given)", "< 4.00"],
  ["CC1CCC2(CC1)SC(C)C(=O)N2NC(=O)C12CC3CC(CC(C3)C1)C2 (stereo not given)", "< 4.00"]
]}
